- testSystem: UniProt P52333
- Sequence (P52333 whole entry, the tested form may be a part): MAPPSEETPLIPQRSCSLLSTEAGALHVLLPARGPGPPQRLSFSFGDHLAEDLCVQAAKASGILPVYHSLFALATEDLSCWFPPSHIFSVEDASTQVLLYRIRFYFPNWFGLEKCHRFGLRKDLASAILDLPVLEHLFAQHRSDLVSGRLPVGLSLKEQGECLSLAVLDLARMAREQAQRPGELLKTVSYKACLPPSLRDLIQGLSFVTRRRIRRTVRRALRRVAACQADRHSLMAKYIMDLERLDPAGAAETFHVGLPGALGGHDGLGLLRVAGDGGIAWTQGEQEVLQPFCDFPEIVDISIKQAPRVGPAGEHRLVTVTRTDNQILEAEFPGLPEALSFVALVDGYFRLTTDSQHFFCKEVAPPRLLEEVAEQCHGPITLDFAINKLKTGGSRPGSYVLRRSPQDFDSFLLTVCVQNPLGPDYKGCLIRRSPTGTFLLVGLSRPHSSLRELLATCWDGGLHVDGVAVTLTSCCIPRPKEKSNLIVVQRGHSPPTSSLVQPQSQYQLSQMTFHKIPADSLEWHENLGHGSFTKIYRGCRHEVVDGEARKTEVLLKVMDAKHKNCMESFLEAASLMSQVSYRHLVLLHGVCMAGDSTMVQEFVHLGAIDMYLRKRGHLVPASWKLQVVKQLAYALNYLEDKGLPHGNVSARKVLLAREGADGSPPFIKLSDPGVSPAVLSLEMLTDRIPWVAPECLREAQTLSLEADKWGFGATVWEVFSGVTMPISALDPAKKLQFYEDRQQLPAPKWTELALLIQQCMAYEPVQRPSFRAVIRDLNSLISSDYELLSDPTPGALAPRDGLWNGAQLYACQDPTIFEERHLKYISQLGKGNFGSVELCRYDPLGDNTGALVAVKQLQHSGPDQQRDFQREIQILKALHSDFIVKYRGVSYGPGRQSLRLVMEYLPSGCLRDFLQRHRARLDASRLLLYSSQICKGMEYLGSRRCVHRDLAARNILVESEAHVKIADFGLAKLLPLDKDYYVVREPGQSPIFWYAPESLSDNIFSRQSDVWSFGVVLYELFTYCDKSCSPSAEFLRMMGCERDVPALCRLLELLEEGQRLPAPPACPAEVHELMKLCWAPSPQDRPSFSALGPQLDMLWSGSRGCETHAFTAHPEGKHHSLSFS
- methodDescription: Inhibition of JAK3 JH1 catalytic domain at 1 uM

[
  {
    "smilesNotation": "CN1CCN(c2ccc(-c3cnc4c(c3)N(Cc3cc(Cl)ccc3C(F)(F)F)CCN4)cn2)CC1",
    "unitAnnotation": "%",
    "operatorSymbol": "=",
    "inhibition": 75
  },
  {
    "smilesNotation": "CN1CCN(c2ccc(-c3cnc4c(c3)N(Cc3cc(F)ccc3F)CCN4)cn2)CC1",
    "unitAnnotation": "%",
    "operatorSymbol": "=",
    "inhibition": 86.4
  },
  {
    "smilesNotation": "FC(F)(F)c1ccc(Cl)cc1CN1CCNc2ncc(-c3ccnc(N4CCNCC4)c3)cc21",
    "unitAnnotation": "%",
    "operatorSymbol": "=",
    "inhibition": 88
  },
  {
    "smilesNotation": "COC1CCN(C(=O)c2ccc(-c3cnc4c(c3)N(Cc3cc(Cl)ccc3C(F)(F)F)CCN4)cc2)CC1",
    "unitAnnotation": "%",
    "operatorSymbol": "=",
    "inhibition": 93.2
  },
  {
    "smilesNotation": "CC(=O)N1CCN(c2cc(-c3cnc4c(c3)N(Cc3cc(Cl)ccc3C(F)(F)F)CCN4)ccn2)CC1",
    "unitAnnotation": "%",
    "operatorSymbol": "=",
    "inhibition": 88
  },
  {
    "smilesNotation": "O=C(c1ccc(-c2cnc3c(c2)N(Cc2cc(Cl)ccc2C(F)(F)F)CCN3)cc1)N1CCCCC1",
    "unitAnnotation": "%",
    "operatorSymbol": "=",
    "inhibition": 79.3
  },
  {
    "smilesNotation": "O=C(c1ccc(-c2cnc3c(c2)N(Cc2cc(Cl)ccc2C(F)(F)F)CCN3)cc1)N1CCC(N2CCCC2)CC1",
    "unitAnnotation": "%",
    "operatorSymbol": "=",
    "inhibition": 98.7
  },
  {
    "smilesNotation": "O=C(O)c1ccc(-c2cnc3c(c2)N(Cc2cc(Cl)ccc2C(F)(F)F)CCN3)cc1",
    "unitAnnotation": "%",
    "operatorSymbol": "<",
    "inhibition": 50
  },
  {
    "smilesNotation": "CN1CCN(c2ccc(-c3cnc4c(c3)N(Cc3c(F)ccc(F)c3Cl)CCN4)cn2)CC1",
    "unitAnnotation": "%",
    "operatorSymbol": "=",
    "inhibition": 83
  },
  {
    "smilesNotation": "CN1CCN(c2ccc(-c3cnc4c(c3)N(Cc3cc(Cl)ccc3Cl)CCN4)cn2)CC1",
    "unitAnnotation": "%",
    "operatorSymbol": "=",
    "inhibition": 73
  }
]
